Would you mind telling me the reported koff of each entry?
# target-system: T1, recombinant human IL4Rα-his protein (in house made) (human, UniProt P24394 26-232, limits assumed)
# T1 construct: also called Human IL4Ra-his
# procedure-text: SPR (Biacore), antibody captured, IL4Rα-his flowed
# output: bare number, implied unit s⁻¹

Read off the recorded koff for mouse antibody B9D1D11F8D8 (antibody, V domains shown, Mouse hybridoma mAb) VH: EVKLVESGGGLVKPGGSLKLSCAASGFTFSSYAMSWVRQTPEKRLEWVASISSGDSTYYLDSVKGRFTISRDNARNILYLQVSSLRSEDTAMYYCERSGGSAPYWGQGTLVTVSA VL: QIVLTQSPAIMSASPGDMVTISCSASSSVNYMYWYQQKPGSSPKPWIYRTSNLASGVPARFSGSGSGTSYSLTISSMEAEDAATYYCQQYHSFPLTFGAGTKLELK 0.000274

Read off the recorded koff for mouse antibody B8G11F2B7G5E8 (antibody, V domains shown, Mouse hybridoma mAb; also called Mouse B8G11F2B7G5E8; mAb B8G11F2B7G5E8) VH: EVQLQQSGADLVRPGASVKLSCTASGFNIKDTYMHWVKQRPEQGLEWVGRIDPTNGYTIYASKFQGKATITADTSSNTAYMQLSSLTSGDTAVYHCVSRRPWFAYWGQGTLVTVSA VL: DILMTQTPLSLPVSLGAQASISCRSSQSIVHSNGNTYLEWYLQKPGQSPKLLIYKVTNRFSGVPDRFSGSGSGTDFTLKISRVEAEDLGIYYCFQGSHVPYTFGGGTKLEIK 0.000293

Read off the recorded koff for mouse antibody C2C1A1A1 (antibody, V domains shown, Mouse hybridoma mAb; also called Mouse C2C1A1A1) VH: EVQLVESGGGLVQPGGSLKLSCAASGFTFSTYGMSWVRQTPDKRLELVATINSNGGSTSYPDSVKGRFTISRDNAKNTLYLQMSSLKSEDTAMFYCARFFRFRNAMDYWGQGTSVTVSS VL: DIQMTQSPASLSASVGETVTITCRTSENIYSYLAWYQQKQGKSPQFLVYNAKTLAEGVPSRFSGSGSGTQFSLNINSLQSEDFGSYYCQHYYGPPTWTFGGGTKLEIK 1.16e-05

Read off the recorded koff for mouse antibody C2B2F7B7 (antibody, V domains shown, Mouse hybridoma mAb) VH: EVQLVESGGGLVQPGGSLKLSCAASGFTFSTYGMSWVRQTPDKRLELVATINSNGGSTNYPDSVKGRFTISRDNAKNTLYLQMSSLKSEDTAMYYCARFFRIRNAMDYWGQGTSVTVSS VL: DIQMTQSPASLSASVGETVTITCRASENIYSYLAWYQQKQGKSPQFLVYNAKTLAEGVPSRFSGSGSGTQFSLKINSLQPEDFGSYYCQHYYGTPTWTFGGGTKLEIK 0.000139
